Source listed as the supplement of paper PMC10567573.

B1: FAM50A (parent)
chain: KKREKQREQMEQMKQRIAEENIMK

Variants of: B1
Test: protein stability index of a GFP-peptide fusion (GPS, HEK-293T) (PSI 1-6); higher = more stable;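 further: lentivirally expressed fusions sorted by FACS into six bins by GFP to DsRed ratio, PSI derived from sequencing read proportions per bin multiplied by bin number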
Conditions: c terminus: a fixed tail appended
protein stability index by entry:
endpoint name: protein stability index

> print(dat)
    mutant  value
 1    K14H   5.01
 2    M23V   5.27
 3    M10T   4.69
 4    Q15A   4.67
 5    K14A   5.21
 6     Q6I   4.67
 7     E4A   5.04
 8     Q9G   4.75
 9    K14Y   4.39
10    E19T   4.78
11    K14Q   5.15
12    E20P    4.8
13    K14F   4.32
14     K2N   4.94
15     K2S   5.01
16    M13S   5.31
17    R16G   5.32
18    K14W    3.9
19    I22Y   4.18
20    N21A   4.73
21    N21F   4.31
22    R16N   4.67
